From: PubChem BioAssay

# System: Noggin (protein binding on small-molecule microarray)
# assay-overview: Noggin binders on small-molecule microarray, primary screen, biochemical, 635/667 nm fluorescence (AID 1095);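 further: score merges 667 nm feature fluorescence with signal to noise over triplicate slides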
# assay-setup: 635 nm fluorescence, higher = more signal
# composite z-score listing for each entry below

{"columns": ["substance-smiles", "composite z-score"],
 "data": [
  ["CC(C)N1C(=O)c2ccccc2[C@](C)(C(=O)NCCN2CCOCC2)[C@@H]1c1ccc(CO)cc1", 0.495],
  ["COC(=O)[C@@]1(Cc2ccc(F)cc2)[C@H]2c3cc(C(=O)N4CCCC4)n(CCCNc4ncc(C(F)(F)F)cc4Cl)c3C[C@H]2CN1C(=O)c1ccccc1", -0.756],
  ["O=C1O[C@@H](c2ccccc2)[C@@H](c2ccccc2)N2[C@@H](c3ccccc3OCCO)[C@]3(C(=O)Nc4ccccc43)[C@@H](C(=O)Nc3nc4ccccc4s3)[C@H]12", 1.53]
]}

###

# assay-overview: E. coli DRC41 culture turbidity changes, primary screen, E. coli filamentation inducer project, strain DRC41, OD650, 48 h (AID 1152);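 further: E. coli MC1000 strain DRC41 lacking acrAB efflux pump and sulA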
# assay-setup: E. coli DRC41 (acrAB sulA), higher = more signal, called active from +8 up or from −8 down
# z-score listing for each entry below

{"columns": ["substance-smiles", "z-score"],
 "data": [
  ["CCCC[C@@H]1C[C@H]1[C@@H](NC(=O)c1ccco1)c1ccc(-c2ccccc2)cc1", -1.73],
  ["COCCOC(=O)N1C(=O)[C@@]2(c3ccccc31)[C@H](c1ccccc1OCCO)N1[C@H](c3ccccc3)[C@H](c3ccccc3)OC(=O)[C@H]1[C@@H]2C(=O)N1CCN(c2ncccn2)CC1", -0.102],
  ["CCCC[C@H]1OB(O)C[C@H]2C1=C(COC)C[C@H]1C(=O)N(C)C(=O)[C@H]12", -0.971],
  ["COc1ccc(C#Cc2ccc3c(c2)[C@]2(C(=O)N3)[C@H](C(=O)NC[C@H](O)c3ccccc3)[C@H]3C(=O)O[C@H](c4ccccc4)[C@H](c4ccccc4)N3[C@@H]2c2ccc(O)cc2)cc1", 0.078],
  ["O=C1O[C@@H](c2ccccc2)[C@@H](c2ccccc2)N2[C@@H](c3ccccc3OCCO)[C@]3(C(=O)Nc4ccc(C#CC5=CCCCC5)cc43)[C@@H](C(=O)N3CCCCCCC3)[C@H]12", -0.511],
  ["COc1cccc(-c2cccc(=O)o2)c1", 0.0997],
  ["NC(=O)[C@@H]1[C@H]2C(=O)O[C@H](c3ccccc3)[C@H](c3ccccc3)N2[C@H](c2ccc(O)cc2)[C@@]12C(=O)Nc1ccccc12", 0.428]
]}

###

# assay-overview: small-molecule binders of probe aNOTCH2, primary screen, biochemical, small-molecule microarray, 635/667 nm fluorescence (AID 1121);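 further: score merges feature fluorescence read at 667 nm with its signal to noise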
# assay-setup: higher = more signal
Response key: true (1) means composite z-score >= -0.06; false (0) means composite z-score < -0.06.

{"columns": ["compound", "label-value"],
 "data": [
  ["COC(=O)[C@@]1(Cc2ccc(OC)cc2)[C@H]2c3cc(C(=O)N(C)C)n(C)c3C[C@H]2CN1C(=O)c1ccccc1", "true (1)"],
  ["Cc1nc2cc(Br)ccc2c(=O)o1", "false (0)"],
  ["CN1C(=O)C2C=CC(C(O)c3ccccc3)N(N(c3ccccc3)c3ccccc3)C2C1=O (stereo not given)", "true (1)"],
  ["O=C(N1CCCCC1)[C@]1(Cc2ccccc2)N=C(c2ccc(OCCCO)cc2)O[C@@H]1c1ccccc1", "true (1)"],
  ["COC(=O)[C@@]1(CCC(=O)OC(C)(C)C)N=C(c2ccc(OCCCO)cc2)O[C@H]1c1ccccc1N=[N+]=[N-]", "false (0)"]
]}
